Value source: patent US20240108577A1

test: Pre-packaging refrigeration stability of ground MC powder (5° C.±2° C., up to 12% RH), LOD and U-HPLC of phytocannabinoids; type: physicochemical; settings: up to 3 months, one-way ANOVA
experimental.readout: change in phytocannabinoid concentration during storage

Example entries begin here.
> print(dat)
                                   molecule        observed.result
1  CCCCCc1cc(O)c(C/C=C(\C)CCC=C(C)C)c(O)c1C(=O)O [CBGA, Cannabigerolic acid]  no significant change
2  C=C(C)[C@@H]1CCC(C)=C[C@H]1c1c(O)cc(CCCCC)c(C(=O)O)c1O [CBDA, Cannabidiolic acid]  no significant change
3  CCCCCc1cc(O)c2c(c1)OC(C)(C)c1ccc(C)cc1-2 [CBN, Cannabinol]  no significant change
4  CCCCCc1cc2c(c(O)c1C(=O)O)[C@@H]1C=C(C)CC[C@H]1C(C)(C)O2 (relative stereo) [THCA]  no significant change

Consider now this further molecule.
change in phytocannabinoid concentration during storage for CCCCCc1cc(O)c2c(c1)OC(C)(C)[C@@H]1CCC(C)=C[C@@H]21 [THC, (−)-Δ^9-trans-tetrahydrocannabinol] is no significant change
